Hey, just so you know, these numbers are from PubChem BioAssay (NCI).

- Tested on: UO-31 renal
- Method Notes: NCI tumour cell line growth inhibition, 48 h
Measured Metric: TGI

Please review the following examples before continuing.
COc1ccc(C(=O)/C(=N/Nc2ccccc2)c2ccc(OC)cc2)cc1 : > 100 µM
O=C(O)Cn1nnc2c(=O)[nH][nH]c(=O)c21 : > 100 µM
CCOCCc1c(O)nc(SC)[nH]c1=O : > 100 µM
Nc1nc(=O)n(C2CC(O)C(O)C(CO)O2)cc1F (stereo not drawn) : > 100 µM

Retrieve TGI measured for CC(C)=CCC[C@](C)(O)[C@H]1CC[C@]2(C)[C@@H]1[C@H](O)C[C@@H]1[C@@]3(C)CC[C@H](O[C@@H]4O[C@H](CO)[C@@H](O)[C@H](O)[C@H]4O)C(C)(C)[C@@H]3CC[C@]12C and print it.
31.1 µM

Retrieve TGI measured for Cc1nc2c(O)cccc2c(=O)[nH]1 and print it.
> 1000 µM

Answer with reported TGI of C(=N/Nc1ncnc2nc[nH]c12)/c1ccccn1
3.09 µM

Using the record for CC1=Nc2nc3ccccc3n2C(C)(C)C1 , state its measured TGI.
> 100 µM

Look up and report measured TGI for this entry: COc1ccc(S(=O)(=O)N2CCN(C(=O)OCc3ccccc3)CC2C(=O)NO)cc1 (stereo not drawn)
> 25 µM

Return the recorded TGI value; entry: CC(Oc1ccccc1)C(=O)NN (stereo not drawn)
> 100 µM

Note TGI for the molecule shown: COc1cc(CNc2nc3ccccc3nc2-c2cccs2)cc(OC)c1OC
25 µM

Assign TGI to the following record: CC1C(=O)C(C)C(c2cccs2)N(N=O)C1c1cccs1 (stereo not drawn)
> 100 µM

Answer with the recorded TGI for the molecule listed here: CC(C)c1ccc2c(N=Nc3ccc(S(N)(=O)=O)cc3)c(O)[nH]c2c1
> 20.7 µM

Look up TGI of Cc1ccccc1N=Cc1ccc(N(CCC#N)S(=O)(=O)c2ccccc2)cc1 and report it.
> 100 µM

// fetch TGI given entry O=c1[nH]c(=O)n(C2CC(O)C(COP(=O)(O)OC3CC(n4cc(F)c(=O)[nH]c4=O)OC3COP(=O)(O)OC3CC(n4cc(F)c(=O)[nH]c4=O)OC3COP(=O)(O)OC3CC(n4cc(F)c(=O)[nH]c4=O)OC3COP(=O)(O)OC3CC(n4cc(F)c(=O)[nH]c4=O)OC3COP(=O)(O)OC3CC(n4cc(F)c(=O)[nH]c4=O)OC3COP(=O)(O)OC3CC(n4cc(F)c(=O)[nH]c4=O)OC3COP(=O)(O)OC3CC(n4cc(F)c(=O)[nH]c4=O)OC3COP(=O)(O)OC3CC(n4cc(F)c(=O)[nH]c4=O)OC3COP(=O)(O)OC3CC(n4cc(F)c(=O)[nH]c4=O)OC3CO)O2)cc1F (stereo not drawn)
> 50 µM

Supply reported TGI belonging to this molecule: CC(=O)c1c2c(cc3c1CC1(Cc4cc5c(cc4C1=O)CCC5)C3)CCC2 (stereo not drawn)
> 100 µM

// Input: CC1(C)N(OC2CCCCO2)C(c2ccccc2)C(c2ccccc2)=[N+]1[O-] (stereo not drawn) . Output its TGI only.
> 100 µM

Please give the documented TGI of CCCCCCc1cc2cc(C(=O)Nc3ccccc3F)c(=N)oc2cc1O
17.5 µM

In one line, give reported TGI of the entry CCCn1cc(C2=C(c3cn(C)c4ccccc34)C(=O)NC2=O)c2ccccc21 .
12 µM

Give reported TGI value for COc1c(OC(C)=O)c(OC(C)=O)cc2c1-c1ccc(OC)c(=O)cc1C(NC(C)=O)CC2 (stereo not drawn)
> 100 µM

Give TGI for O=C(/C=C/c1ccccn1)c1ccccc1O
2.6 µM

Please look at this molecule and report its TGI: O=C(CC(=O)N(C(=O)c1ccccc1)c1ccc(Cl)cc1)N/N=C\c1ccccc1O
> 100 µM

Quote TGI reported for COc1cc(C(=O)NC2CCN(C)CC2)ccc1Nc1ncc2c(n1)N(C1CCCC1)CC(F)(F)C(=O)N2C please.
12.9 µM

Answer with the recorded TGI of C=CCCC(O)c1ccc(C(O)CCCCCCCCCCCC)o1 (stereo not drawn) only.
41.4 µM

# return recorded TGI for input COC(=O)CCC(=O)CC(=O)C(=O)Nc1ccc(F)cc1
> 100 µM
